target: Delta-type opioid receptor (Homo sapiens); assay: Binding affinity to Opioid receptor delta 1 by competitive inhibition of radioligand [3H]DPDPE using cloned receptors transiently expressed on CHO cells; assay type: cell-based, Cavia porcellus
Sequence (P41143 whole entry): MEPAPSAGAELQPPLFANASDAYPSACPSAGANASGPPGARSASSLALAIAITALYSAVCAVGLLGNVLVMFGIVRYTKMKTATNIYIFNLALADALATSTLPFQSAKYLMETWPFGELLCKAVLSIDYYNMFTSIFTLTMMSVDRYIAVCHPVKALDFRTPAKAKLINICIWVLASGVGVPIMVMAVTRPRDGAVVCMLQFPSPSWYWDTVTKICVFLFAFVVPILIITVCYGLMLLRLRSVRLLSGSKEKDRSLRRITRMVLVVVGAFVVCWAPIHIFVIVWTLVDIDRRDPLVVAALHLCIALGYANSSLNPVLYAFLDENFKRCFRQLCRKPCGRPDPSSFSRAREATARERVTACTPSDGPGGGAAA
pKi: −log10 of the molar value.

# Query smiles, pKi
data = [
    ("CC[C@H](C)[C@@H]1NC(=O)[C@H](CCCNC(=N)N)NC(=O)[C@H](NC(=O)[C@H](CC(C)C)NC(=O)[C@H](Cc2ccccc2)NC(=O)CNC(=O)CNC(=O)[C@@H](N)Cc2ccc(O)cc2)CC(=O)NCC[C@@H](C(=O)N2CCC[C@H]2C(=O)N[C@@H](CCCCN)C(=O)N[C@@H](CC(C)C)C(=O)N[C@@H](CCCCN)C(N)=O)NC1=O", 6.74),
    ("CC[C@H](C)[C@H](NC(=O)[C@H](CCCNC(=N)N)NC(=O)[C@H](CCCNC(=N)N)NC(=O)[C@H](CC(C)C)NC(=O)[C@H](Cc1ccccc1)NC(=O)CNC(=O)CNC(=O)[C@@H](N)Cc1ccc(O)cc1)C(=O)N[C@@H](CCCNC(=N)N)C(=O)N1CCC[C@H]1C(=O)N[C@@H](CCCCN)C(=O)N[C@@H](CC(C)C)C(=O)N[C@@H](CCCCN)C(=O)O", 7.55),
    ("CC(C)C[C@H](NC(=O)[C@H](CCCCN)NC(=O)[C@@H]1CCCN1C(=O)[C@H](CCCNC(=N)N)NC(=O)[C@H](CN)NC(=O)[C@H](CCCNC(=N)N)NC(=O)[C@H](CCCNC(=N)N)NC(=O)[C@@H](CC(=O)O)NC(=O)[C@H](Cc1ccccc1)NC(=O)CNC(=O)CNC(=O)[C@@H](N)Cc1ccc(O)cc1)C(=O)N[C@@H](CCCCN)C(N)=O", 5.80),
]
